biological target: ROS1 (Homo sapiens, UniProt P08922); construct: purchased Carna Biosciences 08-163; assay: ROS1 autophosphorylation inhibitory activity evaluation (ADP-Glo); format: biochemical; conditions: 200 nM inactive ROS1, ATP 1 mM, 25° C. 1.5 hours, ADP generated, four separate measurements
Sequence (P08922 28-2347): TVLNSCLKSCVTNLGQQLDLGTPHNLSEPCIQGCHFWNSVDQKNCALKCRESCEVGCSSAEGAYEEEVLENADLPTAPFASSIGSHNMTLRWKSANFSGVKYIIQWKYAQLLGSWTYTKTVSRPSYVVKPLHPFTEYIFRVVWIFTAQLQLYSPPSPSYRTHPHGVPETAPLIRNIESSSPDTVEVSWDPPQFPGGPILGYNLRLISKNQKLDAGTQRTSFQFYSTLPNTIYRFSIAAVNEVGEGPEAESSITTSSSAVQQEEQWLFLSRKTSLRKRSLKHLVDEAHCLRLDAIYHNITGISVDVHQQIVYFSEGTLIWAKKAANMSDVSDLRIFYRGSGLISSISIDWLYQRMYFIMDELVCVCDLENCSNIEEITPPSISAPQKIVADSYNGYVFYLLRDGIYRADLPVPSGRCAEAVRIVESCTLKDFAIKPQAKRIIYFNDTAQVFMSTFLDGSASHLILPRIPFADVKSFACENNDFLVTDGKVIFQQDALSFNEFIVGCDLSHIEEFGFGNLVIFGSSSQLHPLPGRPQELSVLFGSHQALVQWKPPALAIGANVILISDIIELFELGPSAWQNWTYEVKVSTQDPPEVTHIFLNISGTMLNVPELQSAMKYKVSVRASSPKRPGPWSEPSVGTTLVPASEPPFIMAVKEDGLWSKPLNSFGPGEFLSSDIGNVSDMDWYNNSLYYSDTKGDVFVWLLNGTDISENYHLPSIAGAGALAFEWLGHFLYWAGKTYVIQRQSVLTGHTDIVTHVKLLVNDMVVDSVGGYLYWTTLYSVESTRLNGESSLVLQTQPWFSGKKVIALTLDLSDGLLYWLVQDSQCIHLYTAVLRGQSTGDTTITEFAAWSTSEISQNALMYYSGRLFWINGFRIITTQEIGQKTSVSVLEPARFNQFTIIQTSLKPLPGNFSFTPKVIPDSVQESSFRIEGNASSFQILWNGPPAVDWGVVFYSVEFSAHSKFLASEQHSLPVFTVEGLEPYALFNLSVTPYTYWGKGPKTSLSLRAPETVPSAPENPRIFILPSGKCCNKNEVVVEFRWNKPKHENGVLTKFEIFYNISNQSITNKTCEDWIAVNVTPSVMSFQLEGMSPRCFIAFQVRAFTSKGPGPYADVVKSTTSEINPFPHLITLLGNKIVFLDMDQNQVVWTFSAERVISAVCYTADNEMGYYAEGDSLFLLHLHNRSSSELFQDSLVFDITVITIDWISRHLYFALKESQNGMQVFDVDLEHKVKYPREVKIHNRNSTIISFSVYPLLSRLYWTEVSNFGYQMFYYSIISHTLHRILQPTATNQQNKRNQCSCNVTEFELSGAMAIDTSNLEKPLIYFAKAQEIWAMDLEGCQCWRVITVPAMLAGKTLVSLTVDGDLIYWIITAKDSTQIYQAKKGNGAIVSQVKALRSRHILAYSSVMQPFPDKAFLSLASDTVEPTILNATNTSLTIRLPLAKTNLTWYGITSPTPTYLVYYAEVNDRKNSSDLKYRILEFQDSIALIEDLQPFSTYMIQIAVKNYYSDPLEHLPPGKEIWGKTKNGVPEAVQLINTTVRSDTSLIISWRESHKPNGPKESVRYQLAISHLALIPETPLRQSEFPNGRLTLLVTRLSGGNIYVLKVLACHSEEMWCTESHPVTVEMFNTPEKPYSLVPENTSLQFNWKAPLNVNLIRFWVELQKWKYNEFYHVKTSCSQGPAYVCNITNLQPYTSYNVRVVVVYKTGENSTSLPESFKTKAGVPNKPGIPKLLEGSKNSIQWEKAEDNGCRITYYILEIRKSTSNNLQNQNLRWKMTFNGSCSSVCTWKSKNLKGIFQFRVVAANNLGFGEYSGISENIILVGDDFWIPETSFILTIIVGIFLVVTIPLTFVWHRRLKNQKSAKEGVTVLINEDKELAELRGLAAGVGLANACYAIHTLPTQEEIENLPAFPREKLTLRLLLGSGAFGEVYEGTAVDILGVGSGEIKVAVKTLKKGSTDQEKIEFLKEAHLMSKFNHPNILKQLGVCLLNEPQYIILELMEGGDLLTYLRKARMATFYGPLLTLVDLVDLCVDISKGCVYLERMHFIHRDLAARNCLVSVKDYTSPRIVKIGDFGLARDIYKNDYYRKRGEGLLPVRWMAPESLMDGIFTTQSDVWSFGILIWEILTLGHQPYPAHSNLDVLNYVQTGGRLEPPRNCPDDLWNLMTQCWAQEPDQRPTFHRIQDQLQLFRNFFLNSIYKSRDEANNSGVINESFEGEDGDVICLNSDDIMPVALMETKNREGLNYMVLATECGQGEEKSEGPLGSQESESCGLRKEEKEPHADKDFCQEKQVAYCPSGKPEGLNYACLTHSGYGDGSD
measured-attribute: IC50

Would you please look over these solved cases?
compound: C[C@@H](Nc1ccc2ncc(-c3ccc(O[C@H]4C[C@H](N)C4)cc3)n2n1)c1cccc(F)c1
result: < 20 nM
//
compound: N[C@H]1CC(=O)N(c2ccc(-c3cnc4ccc(OCc5cccc(F)c5)nn34)cc2)C1
result: < 20 nM

So, CC(Oc1ccc2ncc(-c3ccc(N4C[C@@H](N)CC4=O)cc3)n2n1)c1cc(F)cnc1F (stereo partly shown) ? Its IC50 was < 20 nM

* * *

target: ROS1 (Homo sapiens); construct: purchased Carna Biosciences 08-163; assay: ROS1 kinase inhibitory activity evaluation (mobility shift, EZ Reader II); type: biochemical; conditions: ROS1 25 pg/μL, FL-Peptide 22 substrate, three separate measurements
measured-attribute: IC50

cpd-smiles: C[C@@H](Nc1ccc2ncc(-c3ccc(OC[C@@H]4CCCN4)cc3)n2n1)c1ccccc1
IC50: 1 to 10 nM

So, CN(Cc1cncc(F)c1)c1ccc2ncc(-c3ccc(N4C[C@@H](N)CC4=O)cc3)n2n1 ? Its IC50 was 1 to 10 nM

So, C[C@@H](Oc1ccc2ncc(-c3ccc(N4C[C@@H](N)CC4=O)nc3)n2n1)c1cccc(F)c1 ? Its IC50 was < 1 nM

So, CNCCCOc1ccc(-c2cnc3ccc(N[C@H](C)c4cccc(F)c4)nn23)cc1 ? Its IC50 was 1 to 10 nM

* * *

Recorded pIC50, one value per entry.
system: HCC78 cells having ROS1 fusion gene; test: HCC78 cell growth assay (CellTiter-Glo); assay type: cell-based; conditions: Homo sapiens, HCC78, 72 h, 72 hours culture, 2% FBS medium, luminescence, four separate measurements; read-out: growth inhibitory effect on HCC78 cells having ROS1 fusion gene IC50
pIC50: −log10 of the molar value.

compound: CNCCOc1ccc(-c2cnc3ccc(N[C@H](C)c4cccc(F)c4)nn23)cc1
result: > 7.70
//
compound: C[C@@H](Nc1ccc2ncc(-c3ccc(OCCN(C)C)nc3)n2n1)c1cccc(F)c1
result: > 7.70
//
compound: N#Cc1cccc(COc2ccc3ncc(-c4ccc(N5C[C@@H](N)CC5=O)cc4)n3n2)c1
result: 6.22 to 7.00
//
compound: CN(Cc1cncc(F)c1)c1ccc2ncc(-c3ccc(N4C[C@@H](N)CC4=O)c(C#N)c3)n2n1
result: 6.22 to 7.00
//
compound: CN(Cc1cncc(F)c1)c1ccc2ncc(-c3ccc(N4CC(C)(N)CC4=O)cc3)n2n1 (stereo not shown) [Example 119]
result: > 7.70

So, C[C@@H](Nc1ccc2ncc(-c3ccc(O[C@H]4CCC[C@H]4N)cc3)n2n1)c1cccc(F)c1 ? Its pIC50 was > 7.70

So, C[C@@H](Nc1ccc2ncc(-c3ccc(OC[C@@H]4C[C@H](F)CN4)nc3)n2n1)c1cccc(F)c1 ? Its pIC50 was > 7.70

So, C[C@@H](Nc1ccc2ncc(-c3ccc(O[C@H]4C[C@@H](N)C4)cc3)n2n1)c1cccc(F)c1 ? Its pIC50 was 7.00 to 7.70

So, Cc1cc(N2C[C@@H](N)CC2=O)ccc1-c1cnc2ccc(N[C@H](C)c3ccccc3)nn12 ? Its pIC50 was 6.22 to 7.00

So, CNCCOc1ccc(-c2cnc3ccc(N[C@H](C)c4cccc(F)c4)nn23)cn1 ? Its pIC50 was > 7.70

So, CN(Cc1cncc(F)c1)c1ccc2ncc(-c3ccc(N4C[C@@H](N)CC4=O)cc3)n2n1 ? Its pIC50 was > 7.70

So, C[C@@H](Nc1ccc2ncc(-c3ccc(OC[C@H](N)CO)cc3)n2n1)c1cccc(F)c1 ? Its pIC50 was > 7.70

So, C[C@@H](Nc1ccc2ncc(-c3ccc(OCCNCCO)cc3)n2n1)c1cccc(F)c1 ? Its pIC50 was > 7.70

So, CN(Cc1cccc(F)c1)c1ccc2ncc(-c3ccc(N4C[C@@H](N)CC4=O)c(C#N)c3)n2n1 ? Its pIC50 was 7.00 to 7.70

So, C[C@@H](Nc1ccc2ncc(-c3cccc(OC[C@@H]4CCCN4)c3)n2n1)c1cccc(F)c1 ? Its pIC50 was 7.00 to 7.70

So, C[C@H](N)COc1ccc(-c2cnc3ccc(N[C@H](C)c4cccc(F)c4)nn23)cn1 ? Its pIC50 was > 7.70

So, C[C@@H](Nc1ccc2ncc(-c3ccc(OC[C@@H]4CCCN4)c(C#N)c3)n2n1)c1cccc(F)c1 ? Its pIC50 was > 7.70

So, C[C@H](N)COc1ccc(-c2cnc3ccc(N[C@H](C)c4cccc(F)c4)nn23)cc1 ? Its pIC50 was > 7.70

* * *

Target: ROS1 (Homo sapiens, UniProt P08922)
Construct: purchased Carna Biosciences 08-163
Assay: ROS1 autophosphorylation inhibitory activity evaluation (ADP-Glo)
Format: biochemical
Settings: 200 nM inactive ROS1, ATP 1 mM, 25° C. 1.5 hours, ADP generated, four separate measurements
Procedure: Fifty mM HEPES (pH 7.5), 10 mM MgCl2, 0.01% Brij-58, and 2.5 mM DTT were mixed to prepare an enzymatic reaction solution. […] ATP (final concentration: 1 mM) was further added thereto at a concentration of 2.5 μL/well. […] The amount of ADP generated by the autophosphorylation of ROS1 was measured using EnVision (PerkinElmer Japan). […] IC50 values were calculated by curve fitting using GraphPad Prism version 4 (GraphPad software).
measured-attribute: IC50

So, C[C@@H](Nc1ccc2ncc(-c3cccc(N4C[C@@H](N)CC4=O)c3)n2n1)c1cccc(F)c1 ? Its IC50 was < 20 nM

So, C[C@@H](Oc1ccc2ncc(-c3ccc(N4C[C@@H](N)CC4=O)cc3F)n2n1)c1cncc(F)c1 ? Its IC50 was < 20 nM

So, Fc1cccc(COc2ccc3ncc(-c4ccc(O[C@@H]5CCNC5)cc4)n3n2)c1 ? Its IC50 was 100 to 150 nM

So, C[C@@H](Nc1ccc2ncc(-c3ccc(OC[C@@H]4CCN4)cc3F)n2n1)c1cccc(F)c1 ? Its IC50 was < 20 nM

* * *

test system: HCC78 cells having ROS1 fusion gene; test: HCC78 cell growth assay (CellTiter-Glo); format: cell-based; settings: Homo sapiens, HCC78, 72 h, 72 hours culture, 2% FBS medium, luminescence, four separate measurements; read-out: growth inhibitory effect on HCC78 cells having ROS1 fusion gene IC50
Recorded IC50, one value per entry.

Would you please look over these solved cases?
compound: C[C@@H](Oc1ccc2ncc(-c3ccc(N4C[C@@H](N)CC4=O)c(F)c3)n2n1)c1cncc(F)c1
experimental-system: HCC78 cells having ROS1 fusion gene
IC50: 0.02 to 0.1 µM

compound: CNCCOc1cccc(-c2cnc3ccc(N[C@H](C)c4cccc(F)c4)nn23)c1
experimental-system: HCC78 cells having ROS1 fusion gene
IC50: 0.02 to 0.1 µM

compound: C[C@@H](Nc1ccc2ncc(-c3ccc(OC[C@@H](N)CO)cc3)n2n1)c1cccc(F)c1
experimental-system: HCC78 cells having ROS1 fusion gene
IC50: < 0.02 µM

So, C[C@@H](Oc1ccc2ncc(-c3ccc(N4C[C@@H](N)CC4=O)nc3)n2n1)c1cccc(F)c1 ? Its IC50 was 0.02 to 0.1 µM

So, Cc1ccc(F)cc1COc1ccc2ncc(-c3ccc(N4C[C@@H](N)CC4=O)cc3)n2n1 ? Its IC50 was 0.02 to 0.1 µM

So, C[C@@H](Oc1ccc2ncc(-c3ccc(OC4CCNCC4)cc3)n2n1)c1cccc(F)c1 ? Its IC50 was 0.1 to 0.6 µM

So, C[C@H](N)COc1cccc(-c2cnc3ccc(N[C@H](C)c4cccc(F)c4)nn23)c1 ? Its IC50 was 0.02 to 0.1 µM

So, C[C@@H](N)COc1ccc(-c2cnc3ccc(N[C@H](C)c4cccc(F)c4)nn23)cc1 ? Its IC50 was < 0.02 µM

So, C[C@@H](Nc1ccc2ncc(-c3ccc(OC4CNC4)cc3)n2n1)c1cccc(F)c1 ? Its IC50 was 0.02 to 0.1 µM

So, CC(Oc1ccc2ncc(-c3ccc(N4C[C@@H](N)CC4=O)cc3)n2n1)c1cncc(Cl)c1 (stereo partly shown) ? Its IC50 was 0.02 to 0.1 µM

So, C[C@@H](Nc1ccc2ncc(-c3ccc(OCCN(C)C)cc3)n2n1)c1cccc(F)c1 ? Its IC50 was < 0.02 µM

So, CN(Cc1cncc(F)c1)c1ccc2ncc(-c3ccc(N4CC(C)(N)CC4=O)cc3)n2n1 (single isomer, unassigned) [Example 124] ? Its IC50 was < 0.02 µM

So, C[C@@H](Nc1ccc2ncc(-c3ccc(N4C[C@@H](N)CC4=O)cc3)n2n1)c1cccc(F)c1 ? Its IC50 was < 0.02 µM

So, C[C@@H](Nc1ccc2ncc(-c3ccc(O[C@@H]4CCC[C@@H]4N)cc3)n2n1)c1cccc(F)c1 ? Its IC50 was 0.1 to 0.6 µM

So, CN(Cc1cc(F)ccc1Cl)c1ccc2ncc(-c3ccc(N4C[C@@H](N)CC4=O)cc3)n2n1 ? Its IC50 was 0.02 to 0.1 µM

So, NCC1CC(=O)N(c2ccc(-c3cnc4ccc(OCc5cccc(F)c5)nn34)cc2)C1 (stereo not shown) ? Its IC50 was 0.1 to 0.6 µM

So, C[C@@H](Oc1ccc2ncc(-c3ccc(N4C[C@@H](N)CC4=O)cc3F)n2n1)c1cncc(F)c1 ? Its IC50 was 0.02 to 0.1 µM

So, C[C@H](O)[C@@H](N)COc1ccc(-c2cnc3ccc(N[C@H](C)c4cccc(F)c4)nn23)cc1 ? Its IC50 was < 0.02 µM

So, CN[C@H]1CC(=O)N(c2ccc(-c3cnc4ccc(O[C@H](C)c5cccc(F)c5)nn34)cc2)C1 ? Its IC50 was 0.02 to 0.1 µM

So, COc1cc(N2C[C@@H](N)CC2=O)ccc1-c1cnc2ccc(N(C)Cc3cccc(F)c3)nn12 ? Its IC50 was 0.02 to 0.1 µM

So, Fc1cccc(COc2ccc3ncc(-c4ccc(O[C@@H]5CCNC5)cc4)n3n2)c1 ? Its IC50 was 0.1 to 0.6 µM

So, CN(Cc1cccc(F)c1)c1ccc2ncc(-c3ccc(N4CC(C)(N)CC4=O)cc3)n2n1 (stereo not shown) [Example 84] ? Its IC50 was 0.02 to 0.1 µM

So, CN(Cc1cccc(F)c1)c1ccc2ncc(-c3ccc(N4C[C@@H](N)CC4=O)cc3)n2n1 ? Its IC50 was < 0.02 µM

So, CN(Cc1cccc(F)c1F)c1ccc2ncc(-c3ccc(N4C[C@@H](N)CC4=O)cc3)n2n1 ? Its IC50 was 0.02 to 0.1 µM
